All values here come from patent US20180291110A1.

# TARGET: T1, Her2 ECD (amino acids 1 to 629 of matured HER2 with C-terminal avi-tag and His-tag) (human, UniProt P04626 23-652)
# T1 construct: also called purified Her2
# ASSAY_OVERVIEW: SPR, Ab captured, Her2 analyte;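 note: ProteOn XPR36 SPR, rate constants from simultaneous fit of association and dissociation sensorgrams to a 1:1 Langmuir model, buffer-channel referenced, KD taken as koff/kon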

{"columns": ["BINDER", "koff (s⁻¹)"],
 "data": [
  ["Pertuzumab HC x Pertuzumab (Tras.L3) G32A LC (antibody, V domains shown) VH: EVQLVESGGGLVQPGGSLRLSCAASGFTFTDYTMDWVRQAPGKGLEWVADVNPNSGGSIYNQRFKGRFTLSVDRSKNTLYLQMNSLRAEDTAVYYCARNLGPSFYFDYWGQGTLVTVSS VL: DIQMTQSPSSLSASVGDRVTITCKASQDVSIAVAWYQQKPGKAPKLLIYSASYRYTGVPSRFSGSGSGTDFTLTISSLQPEDFATYYCQQHYTTPPTFGQGTKVEIK", 0.00187],
  ["Pertuzumab HC x Pertuzumab (Tras.L3) Y53F LC (antibody, V domains shown) VH: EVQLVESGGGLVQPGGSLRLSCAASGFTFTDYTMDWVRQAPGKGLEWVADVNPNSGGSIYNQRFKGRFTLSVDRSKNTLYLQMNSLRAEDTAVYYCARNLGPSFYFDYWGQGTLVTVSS VL: DIQMTQSPSSLSASVGDRVTITCKASQDVSIGVAWYQQKPGKAPKLLIYSASFRYTGVPSRFSGSGSGTDFTLTISSLQPEDFATYYCQQHYTTPPTFGQGTKVEIK", 0.00254],
  ["Pertuzumab HC x Pertuzumab (Tras.L3) G66R LC (antibody, V domains shown) VH: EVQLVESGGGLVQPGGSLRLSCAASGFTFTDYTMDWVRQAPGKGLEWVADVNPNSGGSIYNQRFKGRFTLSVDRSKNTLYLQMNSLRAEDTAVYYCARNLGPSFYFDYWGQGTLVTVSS VL: DIQMTQSPSSLSASVGDRVTITCKASQDVSIGVAWYQQKPGKAPKLLIYSASYRYTGVPSRFSGSRSGTDFTLTISSLQPEDFATYYCQQHYTTPPTFGQGTKVEIK", 0.00247]
]}
